The measurements presented in this section are drawn from the supplement of paper PMC8253809.

- System: DIPGX37 (H3.3 K27M diffuse intrinsic pontine glioma line)
- assay explanation: growth inhibition (% activity, log2 RLU normalised to DMSO / staurosporine); higher = more growth inhibition
- assay conditions: 33 µM
endpoint name: growth inhibition (%)
Write the value in % as a bare number.

Report growth inhibition for Cc1cc(C)nc(NS(=O)(=O)c2ccc(N)cc2)n1 tested on DIPGX37.
0.0741

Report growth inhibition for CC(=O)SCC(Cc1ccccc1)C(=O)NCC(=O)OCc1ccccc1 (stereo not given) tested on DIPGX37.
2.25

Report growth inhibition for C=C1c2c(Cl)ccc(O)c2C(=O)C2=C(O)[C@]3(O)C(=O)C(C(N)=O)=C(O)[C@@H](N(C)C)[C@@H]3[C@@H](O)[C@H]12.O=C(O)c1cc(S(=O)(=O)O)ccc1O tested on DIPGX37.
1.57

Report growth inhibition for Cc1cc2nc3c(=O)[nH]c(=O)nc-3n(C[C@H](O)[C@H](O)[C@H](O)CO)c2cc1C tested on DIPGX37.
2.89

Report growth inhibition for Cc1ncc(CO)c(CO)c1O tested on DIPGX37.
1.29

Report growth inhibition for COc1cc(/C=C/C(=O)N2CCN(CC(=O)N3CCCC3)CC2)cc(OC)c1OC tested on DIPGX37.
0.826

Report growth inhibition for CCCC(=O)O[C@]1(C(=O)COC(C)=O)CC[C@H]2[C@@H]3C[C@H](F)C4=CC(=O)C=C[C@]4(C)[C@@]3(F)[C@@H](O)C[C@@]21C tested on DIPGX37.
1.44

Report growth inhibition for c1ccc(CN(CC2=NCCN2)c2ccccc2)cc1 tested on DIPGX37.
1.36

Report growth inhibition for C=CCNC(N)=S tested on DIPGX37.
0.393

Report growth inhibition for [I-].[K+] tested on DIPGX37.
-0.668
